- Tested on: human malignant mesothelioma cell line JU77
- assay explanation: MTT cytotoxicity assay, 72 h, JU77
- Type: cell-based
- test conditions: exposure time 72 h
assay readout: IC50 (nM)
Write the answer as a number in nM, unit excluded.

IC50 reading for CC[N+](CC)=C1[S][Au-]2([S]1)[c]1ccccc1C(OC)c1cccc[n+]12.F[P-](F)(F)(F)(F)F (racemic) : 4800

IC50 reading for C[N+](C)=C1[S][Au-]2([S]1)[c]1ccccc1-c1cccc[n+]12.F[P-](F)(F)(F)(F)F (stereo not shown) : 1100

IC50 reading for COC1c2cccc[c]2[Au-]2([S]C(=[N+]3CCCC3)[S]2)[n+]2ccccc21.F[P-](F)(F)(F)(F)F (racemic) : 3300

IC50 reading for COC1c2cccc[c]2[Au-]2([S]C(=[N+]3CCCCC3)[S]2)[n+]2ccccc21.F[P-](F)(F)(F)(F)F (racemic) : 2400

IC50 reading for COC1c2cccc[c]2[Au-]2([S]C(=[N+](C)C)[S]2)[n+]2ccccc21.F[P-](F)(F)(F)(F)F (racemic) : 1400

IC50 reading for F[P-](F)(F)(F)(F)F.c1cc[c]2c(c1)-c1cccc[n+]1[Au-]21[S]C(=[N+]2CCCC2)[S]1 (stereo not shown) : 1500

IC50 reading for N.N.[Cl][Pt][Cl] [Cisplatin, cisplatin, reference compound] : 4200

IC50 reading for C[N+](C)=C1[S][Au-]2([S]1)[c]1ccccc1Cc1cccc[n+]12.F[P-](F)(F)(F)(F)F (stereo not shown) : 2800

IC50 reading for CCCC[N+](CCCC)=C1[S][Au-]2([S]1)[c]1ccccc1Cc1cccc[n+]12.F[P-](F)(F)(F)(F)F (stereo not shown) : 2700

IC50 reading for F[P-](F)(F)(F)(F)F.O=C1c2cccc[c]2[Au-]2([S]C(=[N+]3CCCCCC3)[S]2)[n+]2ccccc21 (stereo not shown) : 1100

IC50 reading for COC1c2cccc[c]2[Au-]2([S]C(=[N+](Cc3ccccc3)Cc3ccccc3)[S]2)[n+]2ccccc21.F[P-](F)(F)(F)(F)F (racemic) : 1700

IC50 reading for F[P-](F)(F)(F)(F)F.c1cc[c]2c(c1)Nc1cccc[n+]1[Au-]21[S]C(=[N+]2CCCCCC2)[S]1 (stereo not shown) : 220

IC50 reading for CC[N+](CC)=C1[S][Au-]2([S]1)[c]1ccccc1-c1cccc[n+]12.F[P-](F)(F)(F)(F)F (stereo not shown) : 890

IC50 reading for F[P-](F)(F)(F)(F)F.c1ccc(C[N+](Cc2ccccc2)=C2[S][Au-]3([S]2)[c]2ccccc2-c2cccc[n+]23)cc1 (stereo not shown) : 760

IC50 reading for CC[N+](=C1[S][Au-]2([S]1)[c]1ccccc1Cc1cccc[n+]12)c1ccccc1.F[P-](F)(F)(F)(F)F (stereo not shown) : 1600

IC50 reading for F[P-](F)(F)(F)(F)F.c1ccc(C[N+](Cc2ccccc2)=C2[S][Au-]3([S]2)[c]2ccccc2Nc2cccc[n+]23)cc1 (stereo not shown) : 520

IC50 reading for C[N+](C)=C1[S][Au-]2([S]1)[c]1ccccc1C(=O)c1cccc[n+]12.F[P-](F)(F)(F)(F)F (stereo not shown) : 1900

IC50 reading for CC[N+](=C1[S][Au-]2([S]1)[c]1ccccc1C(OC)c1cccc[n+]12)c1ccccc1.F[P-](F)(F)(F)(F)F (racemic) : 3200

IC50 reading for COC1c2cccc[c]2[Au-]2([S]C(=[N+]3CCCCCC3)[S]2)[n+]2ccccc21.F[P-](F)(F)(F)(F)F (racemic) : 2400

IC50 reading for CC[N+](=C1[S][Au-]2([S]1)[c]1ccccc1-c1cccc[n+]12)c1ccccc1.F[P-](F)(F)(F)(F)F (stereo not shown) : 850

IC50 reading for CCCC[N+](CCCC)=C1[S][Au-]2([S]1)[c]1ccccc1C(OC)c1cccc[n+]12.F[P-](F)(F)(F)(F)F (racemic) : 1600

IC50 reading for F[P-](F)(F)(F)(F)F.c1ccc(C[N+](Cc2ccccc2)=C2[S][Au-]3([S]2)[c]2ccccc2Cc2cccc[n+]23)cc1 (stereo not shown) : 2300

IC50 reading for CC[N+](CC)=C1[S][Au-]2([S]1)[c]1ccccc1Nc1cccc[n+]12.F[P-](F)(F)(F)(F)F (stereo not shown) : 190

IC50 reading for F[P-](F)(F)(F)(F)F.c1cc[c]2c(c1)Cc1cccc[n+]1[Au-]21[S]C(=[N+]2CCCC2)[S]1 (stereo not shown) : 1100

IC50 reading for CCCC[N+](CCCC)=C1[S][Au-]2([S]1)[c]1ccccc1Nc1cccc[n+]12.F[P-](F)(F)(F)(F)F (stereo not shown) : 86

IC50 reading for F[P-](F)(F)(F)(F)F.c1cc[c]2c(c1)-c1cccc[n+]1[Au-]21[S]C(=[N+]2CCCCC2)[S]1 (stereo not shown) : 620

IC50 reading for CC[N+](CC)=C1[S][Au-]2([S]1)[c]1ccccc1Cc1cccc[n+]12.F[P-](F)(F)(F)(F)F (stereo not shown) : 3000

IC50 reading for CC[N+](CC)=C1[S][Au-]2([S]1)[c]1ccccc1C(=O)c1cccc[n+]12.F[P-](F)(F)(F)(F)F (stereo not shown) : 1200
